# EXPERIMENTAL_TARGET: CDK2 (Homo sapiens, UniProt P24941)
# Construct: endogenous in cells; host or cells: MDA-MB-231
# ASSAY_INFO: CDK protein degradation activity (Western blotting), CDK2
# Format: cell-based
# CONDITION_LABEL: MDA-MB-231 cells, 10 μM, 16 hours, Western blot
# Protocol: In order to evaluate the CDK protein degradation activity of the compounds according to the present invention, the following experiment was conducted. MDA-MB-231 cells were seeded at 5×10^5 cells per well in a 6-well plate. The next day, the compounds were treated in each well to achieve final concentrations of 100 nM, 1 μM, and 10 μM. […] Cell lysates were quantified and separated by size using sodium dodecyl sulfate-polyacrylamide gel electrophoresis (SDS-PAGE). […]
EXPERIMENTAL_ENDPOINT: Enzyme degradation CDK2 (% remaining) @ 10 μM (%)

Cc1cccc(C(=O)N[C@H]2C[C@H](n3cnc4c(NCC5CCN(C(=O)CCCCCNC(=O)CNc6ccc7c(c6)C(=O)N([C@@H]6CCC(=O)NC6=O)C7=O)CC5)ncnc43)C2)n1 (stereo in doubt) [Compound 61] : 40
O=C1CC[C@@H](c2cccc(OCC(=O)N3CCC4(CC3)CC(N3CCN(c5ccc(Nc6ncnc7c6ncn7C6CC(NC(=O)Cc7ccccc7)C6)cc5)CC3)C4)c2)C(=O)N1 (stereo partly shown) [Compound 226] : 40
Cc1cccc(C(=O)N[C@H]2C[C@@H](n3cnc4c(Nc5ccc(N6CCN(CC7CCN(C(=O)COc8ccc9c(c8)C(=O)N([C@H]8CCC(=O)NC8=O)C9=O)CC7)CC6)cc5)ncnc43)C2)n1 [Compound 90] : 10
Cc1cccc(C(=O)NC2CC(n3cnc4c(NCc5ccc(OCC6CCN(C(=O)COc7cccc8c7C(=O)N([C@H]7CCC(=O)NC7=O)C8=O)CC6)cc5)ncnc43)C2)n1 (stereo partly shown) [Compound 107] : 100

[A] Cc1cccc(C(=O)N[C@H]2C[C@@H](n3cnc4c(Nc5ccc(N6CCN(CC7CCN(C(=O)C8CN(c9ccc%10c(c9)C(=O)N([C@H]9CCC(=O)NC9=O)C%10=O)C8)CC7)CC6)cc5)ncnc43)C2)n1 [Compound 401]
[B] Cc1cccc(C(=O)N[C@H]2C[C@@H](n3cnc4c(NCc5cccc(N6CCN(C(=O)CNc7ccc8c(c7)C(=O)N([C@H]7CCC(=O)NC7=O)C8=O)CC6)c5)ncnc43)C2)n1 [Compound 131]
[C] O=C1CC[C@H](N2C(=O)C=C(N3CCC(C(=O)N4CCC5(CC4)CC(N4CCN(c6ccc(Nc7ncnc8c7ncn8C7CC(NC(=O)Cc8ccccc8)C7)cc6)CC4)C5)CC3)C2=O)C(=O)N1 (stereo partly shown) [Compound 193]
List the 3 entries from lowest Enzyme degradation CDK2 (% remaining) @ 10 μM to highest Enzyme degradation CDK2 (% remaining) @ 10 μM value. I would appreciate it if you listed the labels in the requested order.
C, A, B

###

# EXPERIMENTAL_TARGET: CDK2 (Homo sapiens)
# Construct: endogenous in cells; host or cells: MDA-MB-231
# ASSAY_INFO: CDK protein degradation activity (Western blotting), CDK2
# Format: cell-based
# CONDITION_LABEL: MDA-MB-231 cells, 0.1 μM, 16 hours, Western blot
EXPERIMENTAL_ENDPOINT: Enzyme degradation CDK2 (% remaining) @ 0.1 μM (%)

Here's what some known entries look like.
Cc1cccc(C(=O)NC2CC(n3cnc4c(NCc5ccc(N6CCN(CC7CCN(c8cccc9c8C(=O)N([C@H]8CCC(=O)NC8=O)C9=O)CC7)CC6)cc5)ncnc43)C2)n1 (stereo partly shown) : 70
COc1ccc(C(=O)N2CCC(CCCN3CCN(c4ccc(Nc5ncnc6c5ncn6[C@H]5C[C@@H](NC(=O)Cc6ccccc6)C5)cc4)CC3)CC2)cc1N1CCC(=O)NC1=O : 0
O=C1CC[C@H](N2C(=O)c3ccc(OCC(=O)N4CCC(CN5CCC(CNc6ncnc7c6ncn7C6CC(NC(=O)c7c(Cl)cccc7Cl)C6)CC5)CC4)cc3C2=O)C(=O)N1 (stereo partly shown) : 80

[1] Cc1cccc(C(=O)NC2CC(n3cnc4c(NCCC5CCN(CC6CCN(C(=O)COc7cccc8c7C(=O)N([C@H]7CCC(=O)NC7=O)C8=O)CC6)CC5)ncnc43)C2)n1 (stereo partly shown)
[2] O=C1CC[C@@H](c2ccc(OCC(=O)N3CC(N4CCC5(CC4)CC(N4CCN(c6ccc(Nc7ncnc8c7ncn8[C@H]7C[C@@H](NC(=O)Cc8ccccc8)C7)cc6)CC4)C5)C3)cc2)C(=O)N1
Sorting ascending by Enzyme degradation CDK2 (% remaining) @ 0.1 μM, which comes first: 1 or 2 ? The response must carry the label of the picked entry.
1
(1: 30%, 2: 100%)
